Assay Target: CCR2b (Homo sapiens)
Construct: host or cells: AequoScreen CCR2b cells
Sequence (P41597 1-360 isoform P41597-2): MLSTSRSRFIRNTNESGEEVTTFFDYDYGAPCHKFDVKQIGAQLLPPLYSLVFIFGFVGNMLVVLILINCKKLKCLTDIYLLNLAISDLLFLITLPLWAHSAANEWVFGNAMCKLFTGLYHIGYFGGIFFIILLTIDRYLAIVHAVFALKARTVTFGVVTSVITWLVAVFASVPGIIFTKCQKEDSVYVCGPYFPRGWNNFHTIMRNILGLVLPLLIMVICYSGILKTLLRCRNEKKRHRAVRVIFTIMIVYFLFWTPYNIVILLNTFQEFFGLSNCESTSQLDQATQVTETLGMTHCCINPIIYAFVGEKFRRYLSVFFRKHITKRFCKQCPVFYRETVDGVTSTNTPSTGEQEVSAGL
Experiment Description: AequoScreen CCR2b calcium flux assay, antagonist mode against reference agonist MCP-1
Format: cell-based
Recorded Conditions: AequoScreen CCR2b (FAST-060A) cells; inhibition of reference agonist MCP-1 at its EC80; read-out: IC50 (μM) Ca^++flux

# Molecule, IC50
measured = [
    ("COCC1(C(=O)N2CCc3ncc(C(F)(F)F)cc3C2)CCN(Cc2ccc3ccc(=O)n(C)c3c2)C1 (single isomer, unassigned) [Example 26, 27 (Enantiomer I)]", "< 0.2 µM"),
    ("COCC1(C(=O)N2CCc3ncc(C(F)(F)F)cc3C2)CCN(Cc2ccc3c(c2)n(C)c(=O)n3C)C1 (centres unmarked) [Example 38]", "> 1 µM"),
    ("Cn1c(=O)ccc2ccc(CN3CCC(CC4CC4)(C(=O)N4CCc5ncc(C(F)(F)F)cc5C4)C3)cc21 (centres unmarked) [Example 3]", "< 0.2 µM"),
    ("Cn1c(=O)oc2ccc(CN3CCC(CC#N)(C(=O)N4CCc5ncc(C(F)(F)F)cc5C4)C3)cc21 (centres unmarked) [Example 48]", "0.2 to 1 µM"),
    ("COCC1(C(=O)N2CCc3ncc(C(F)(F)F)cc3C2)CCN(Cc2ccc3ccc(=O)n(C)c3c2)C1 (centres unmarked) [Example 25]", "< 0.2 µM"),
    ("COCC1(C(=O)N2CCc3ccc(C(F)(F)F)cc3C2)CCN(Cc2ccc3oc(=O)n(C)c3c2)C1 (centres unmarked) [Example 46]", "< 0.2 µM"),
    ("O=C(N1CCc2ncc(C(F)(F)F)cc2C1)C1(CC2CC2)CCN(Cc2ccc3ccc(=O)[nH]c3c2)C1 (centres unmarked) [Example 15]", "> 1 µM"),
    ("COCC1(C(=O)N2CCc3ncc(C(F)(F)F)cc3C2)CCN(Cc2ccc3sc(=O)n(C)c3c2)C1 (centres unmarked) [Example 28]", "< 0.2 µM"),
    ("COCC1(C(=O)N2CCc3ncc(C(F)(F)F)cc3C2)CCN(Cc2cc3c(ccc(=O)n3C)cc2Cl)C1 (centres unmarked) [Example 36]", "0.2 to 1 µM"),
    ("CC(C)CC1(C(=O)N2CCc3ncc(C(F)(F)F)cc3C2)CCN(Cc2ccc3c(c2)sc(=O)n3C)CC1 [Example 58]", "> 1 µM"),
    ("Cn1c(=O)oc2ccc(CN3CCC(CO)(C(=O)N4CCc5ncc(C(F)(F)F)cc5C4)C3)cc21 (centres unmarked) [Example 49]", "> 1 µM"),
    ("Cn1c(=O)ccc2ccc(CN3CCC(CC4CC4)(C(=O)N4CCc5ncc(C(F)(F)F)cc5C4)C3)cc21 (single isomer, unassigned) [Example 4, 5 (Enantiomer II)]", "< 0.2 µM"),
    ("COc1cc2c(cc1CN1CCC(CC3CC3)(C(=O)N3CCc4ncc(C(F)(F)F)cc4C3)C1)OC(C)C2 (centres unmarked) [Example 10]", "> 1 µM"),
    ("O=C(N1CCc2ncc(C(F)(F)F)cc2C1)C1(CC2CC2)CCN(CC2CCOCC2)C1 (centres unmarked) [Example 8]", "0.2 to 1 µM"),
]
